# Test system: MALME-3M melanoma
# ASSAY_OVERVIEW: NCI-60 one-dose screen, 48 h (100 = growth as untreated, 0 = no growth, -100 = all killed)
# CONDITION: 10 µM unless noted
About 83,000 compounds went through this panel and 20% of them were active in at least one assay; those are over-represented in the sample as a whole.
Measured growth, listed per entry.
Numeric answer only, unit % assumed.

Recorded growth, per entry:
MOLECULE: C/C=C/C/C=C/[C@H](C)C[C@H](O)[C@@H]1C[C@@H]2O[C@H]2/C=C/[C@@H]2OC(C)(C)O[C@H]2/C=C/C[C@H](C)CC(=O)O1
VALUE_UNITS: %
growth: 87.6
//
MOLECULE: COCn1c(C(=O)OC)cc2oc(/C=C3/SC(=S)N(N)C3=O)cc21
VALUE_UNITS: %
growth: 45.8
//
MOLECULE: CCCCS(=O)(=O)c1cc(Nc2ccc(O)c3c2C(=O)c2ccccc2C3=O)ccc1C
VALUE_UNITS: %
growth: 2.26
//
MOLECULE: CC(=O)Nc1nc(C)c(C(=O)N/N=C/N2CCOCC2)s1
VALUE_UNITS: %
growth: 114
//
MOLECULE: CCCCCCC(C)N(CC(C)(C)O)C(=O)c1ccc([N+](=O)[O-])cc1 (stereo not drawn)
VALUE_UNITS: %
growth: 95.8

Query string: Quick one: growth for `N#Cc1c2ncccc2c2nnc3cc(Cl)c(Cl)cc3n12` ?
Result string: 79.6

Query string: Check `CC/C(=N\Nc1nc2ccccc2n1C)c1ccccn1` too.
Result string: 9.46

Query string: Please do the same for COC(=O)C(C)[C@H]1CC[C@@H]2[C@]1(C)CC=C1[C@]23C=C[C@]2(C[C@@H](OC(C)=O)CC[C@]12C)C(C(=O)OC)C3C(=O)OC (stereo partly drawn) as well.
Result string: 73.1

* * *

# Test system: IGROV1 ovarian
# ASSAY_OVERVIEW: NCI-60 one-dose screen, 48 h (100 = growth as untreated, 0 = no growth, -100 = all killed)
# CONDITION: 10 µM unless noted
About 83,000 compounds went through this panel and 20% of them were active in at least one assay; those are over-represented in the sample as a whole. The source made the active and inactive calls. How the source made its calls: active means growth percent below 10; inactive means the rest.
Measured growth by item

Query string: Form: Entry = CCS(=O)(=O)N[C@@H]1O[C@H](COC(C)=O)C(OC(C)=O)[C@H](OC(C)=O)C1OC(C)=O (stereo partly specified) | System = IGROV1 ovarian | growth = ____
Result string: 106% (inactive)

Query string: What do you get for `Nc1ccc(N=Nc2ccccc2)c2cc(S(=O)(=O)O)ccc12` ?
Result string: 108% (inactive)

* * *

# Test system: NCI-H522 lung
# ASSAY_OVERVIEW: NCI-60 one-dose screen, 48 h (100 = growth as untreated, 0 = no growth, -100 = all killed)
# CONDITION: 10 µM
The panel holds about 83,000 compounds, 20% with a hit somewhere; the sample as a whole holds those more often.
Classify on growth using A: < 40%; B: ≥ 40% and < 80%; C: ≥ 80%

COMPOUND: O=C(Nc1cccc(Cn2c(=O)[nH]c3ccc(Oc4ncccn4)cc3c2=O)c1)c1cc(Cl)cc(Cl)c1
GROUP_LABEL: B

COMPOUND: O=C(Nc1cccc(Cn2c(=O)[nH]c3ccc(Oc4ncccn4)cc3c2=O)c1)c1ccc(Cl)cc1
GROUP_LABEL: B

COMPOUND: CN1C(=O)C(=Cc2coc3ccc(Br)cc3c2=O)C(=O)N(C)C1=O
GROUP_LABEL: C

COMPOUND: CC([C@H]1CC=C2C3CCC4=C[C@@H](N(C)C)CC[C@]4(C)C3CC[C@@]21C)N(C)C (stereo partly drawn)
GROUP_LABEL: C

COMPOUND: C=CCN(C)C
GROUP_LABEL: C

COMPOUND: Cc1nc2c(nnn2-c2ccccc2)c2nc(-c3ccccc3)oc(=O)c12
GROUP_LABEL: C

Query string: Would you mind sorting `COc1cccc2c1n([O-])c1cccc(OC)c1[n+]2=O` into the appropriate category?
Result string: B

Query string: Can you check `COc1nc(OC)nc(-c2cc(C(=O)c3ccc(Br)cc3)n3cc(C)cc(C)c23)n1` next?
Result string: B
